Source of measurements: the supplement of paper PMC9170038

Entries and their measured apparent KD of K4 kissing-loop reporter follow.
Test system: K4 kissing-loop RNA reporter;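 further: bound reporter read as fluorescence of individual clusters on recovered sequencing chips by microscopy, with normalized cluster intensities fitted with a binding model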
Assay: apparent KD of K4 kissing-loop reporter; higher = weaker reporter binding
Conditions: Eterna round: R107; input ligand: FMN 200 uM

Query sequence	apparent KD of K4 kissing-loop reporter
AUGACGGGUAGUGAUGUUAUCCACGAUGGGAAGGAUAUCAACCGUGUGAGAAGGUCCUUAUCGGUGCGGCACAUGCAGGUACUAC [theeternabot_sameState_KL_FMN_A_41]	0.215 µM
AGGCGGCAUAAUUGACUGAAAAGAAAUUAACGAGGACCGGUACGGCCGCCACUCGAACACCAGUGAUGUUGGUAUGGGAUAAUUU [Exclusion Tryptophan A GF 18]	0.0916 µM
CUGUUUGGUUGAGAGGUUGGGCGGAAUGAUACCAGUAUAUAAGAAUACCCUUGGCAGCAUAAGAAAGAUAUAGUGAUGUUGUAUA [SSTheophA.K]	0.526 µM
AGACUACCACACUGUCAAUAGACAGUGAGCUAGGAUAUGCUGAUAAGCAGAAGGAGUGAUGUUCCUGGGUAGUCAAUAAAAUAAU [FmnAX 13 G29+G67]	0.399 µM
GCCAGAGCGCGAAGGAGCGCCCUGACAGGUUGCUGCCGUGGGCAGUGAUGUUGCUCAGUCCGGCAGGUAGGUCGCGUGCUCUGGC	0.222 µM
GGAGCCGAUAGUGAUACCAGCCAGUGAUGUUGGCGAAGUCUCAUUUUCGCUCUCGGUAAGGGCCCUUGGCAGCACUUACUCGGAA [Arledied]	0.105 µM
AGCGUCCCUACGGCCGCCACUGGGAGUGAUGUUCCCAGGUUAGGCCUGAGGAUACUAUGGAUCGCCAGGACCGGGUAGCGACCAA [Zaarin]	0.0934 µM
AAAGUAUACUGAAGGAGCGAGUAGUGGAAACAUAAACUCAUUGCGAGUGAUGUUCGCAGUACUCAGGUAGGUCGCGGUAAUCGUA [Exclusion Arginine B Gf 12]	0.499 µM
AGGGAACGCACGGAUACCAGACUCAUAGUGAUGUUGUGGGUAUAAAUUAGCGCAUACACAGUCCCUUGGCAGCCGCUGAAUGGCC [theeternabot_exclusion_KL_Theo_B_1]	0.829 µM
AAUUCUUAUCUUAGUUGAUUUCUAAUUAAACGAGGACCGGUACGGCCGCCACUCGGUUAUGAGUGAUGUUCAUGGAAUUACAUAA [JR_SSTryptoA_Sub019]	0.407 µM
UGGCGACUGCCAGUGAUGUUGGCCGUCGUACGAGGACCGGUACGGCCGCCACUCGUCCUGGUUUAGGCUCCGCCUUCACAUCAGG [Beterire]	0.401 µM
CUGGGUUGACGAAAAGUCAACAAAAGAGAAGGAGCGCACGAAAGUGCAGGUAGGUCGCUCAGUCCAGUGAUGUUGGAUCAUCCAG [#SwitchBubble 11 #K4Late]	0.324 µM

###

The reader will find reported apparent KD of MS2 coat protein values listed item by item below.
System: MS2 coat protein
Assay: apparent KD of MS2 coat protein; designed switch direction (-1 OFF switch, 1 ON switch): -1; higher = weaker reporter binding
Settings: Eterna round: R95; input ligand: microRNA oligo, concentration not stated
Property name: apparent KD of MS2 coat protein (nM)

Query sequence	Property name	Reported
GGAGAGUCAGGAUAUACAUGAGGAUCACCCAUGUUGGAAAGUGGAGGGACGGGAGUCCGUAGAAGGGACGAGAG [Identicality] (puzzle: Exclusion 3)	apparent KD of MS2 coat protein	27.7
AAGAAACGAGGAUAUACAGUUGAGUGAGGGAGGGUAGUGUUACAUGAGGAUCACCCAUGUAGAAGGCGUGAGAG [JR_Exclu2_Sub090] (puzzle: Exclusion 2)	apparent KD of MS2 coat protein	19.3
UUUUAACAUGAGGAUCACCCAUGUGAGGAUAUCGAAAUUUAUAUUAAUAUUAAUAUUUCGAGAAGGCACAUUUU [JMF 25] (puzzle: Exclusion 1)	apparent KD of MS2 coat protein	125
